Data credit: patent US20030171347A1

Give measured pKi for each item. Keep answers brief.
Biological target: σ1 receptors (Cavia porcellus, UniProt Q60492)
Construct: Crude P2 membranes were prepared from guinea pig brain, rat brain, or rat liver; from tissue; host or cells: guinea pig brain (crude P2 membranes)
Sequence (Q60492 whole entry): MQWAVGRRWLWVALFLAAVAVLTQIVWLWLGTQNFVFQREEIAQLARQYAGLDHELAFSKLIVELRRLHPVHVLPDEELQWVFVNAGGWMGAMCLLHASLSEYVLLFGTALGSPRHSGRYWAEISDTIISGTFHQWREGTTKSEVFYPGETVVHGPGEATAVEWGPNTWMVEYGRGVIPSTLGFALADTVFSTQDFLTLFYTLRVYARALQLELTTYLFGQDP
Test: σ1 receptor competition binding
Set-up: species or system guinea pig
Settings: Table 4, second series; [3H](+)-pentazocine, guinea pig brain; read-out: σ1
Numbers only, as −log10 of the molar value.

// worked examples, pKi included
[[record]]
record_smiles = "COc1ccc(CC(=O)N2CCN(CCCc3ccccc3)CC2)cc1"
observable = "pKi"
recorded_number = 7.89

[[record]]
record_smiles = "Clc1ccc(CCN2CCN(CCCc3ccccc3)CC2)cc1Cl"
observable = "pKi"
recorded_number = 8.70

[[record]]
record_smiles = "O=C(Cc1ccc([N+](=O)[O-])cc1)N1CCN(CCCc2ccccc2)CC1"
observable = "pKi"
recorded_number = 7.85


Give pKi for each of the items listed below.
1. Nc1ccccc1CCN1CCN(CCCc2ccccc2)CC1
2. COc1ccc(CCN2CCN(CCCc3ccccc3)CC2)cc1
3. NCCN1CCN(CCCc2ccccc2)CC1

Response:
[8.30, 9.00, 8.52]

Request: Report measured pKi on σ1 receptors (Cavia porcellus, UniProt Q60492); entry: COc1ccccc1CC(=O)N1CCN(CCCc2ccccc2)CC1
Response: 7.25
